// values below are reported log10(TGI)
Tested on: HCC-2998 colon
protocol: NCI tumour cell line growth inhibition, 48 h
Log10 applied to TGI; unit prior to transform: µM.

INSERT INTO assay_data (molecule, resulttype, resultnumber) VALUES
  ('CO[C@H]1/C=C/O[C@@]2(C)Oc3c(C)c(O)c4c(c3C2=O)C(=O)C(/C=N/N(c2ccccc2)c2ccccc2)=C(NC(=O)/C(C)=C\C=C\[C@H](C)[C@H](O)[C@@H](C)[C@@H](O)[C@@H](C)[C@H](OC(C)=O)[C@@H]1C)C4=O', 'log10(TGI)', 0.61),
  ('O=C(CO[N+](=O)[O-])Nc1ccc(C(=O)/C=C/c2ccc(Cl)cc2)cc1', 'log10(TGI)', 0.56),
  ('CCCNNC(=O)/C=C/c1ccc(CNCCc2c(C)[nH]c3ccccc23)cc1', 'log10(TGI)', -0.94),
  ('COc1ccc(-c2cn[nH]c2-c2cc(OC)c3c(c2)OCO3)cc1', 'log10(TGI)', 1.07),
  ('O=C(/C=C/c1ccc(O)cc1)c1ccc2c(c1)OCO2', 'log10(TGI)', 1.61);

Returns the measured log10(TGI) for the input molecule. Input: COc1ccc(C(=O)/C=C/c2ccc(C)cc2)cc1OC
1.44

Param item: CC[N+](CC)=c1sc2c(s1)C(c1ccc(Cl)cc1)Oc1ccc(Cl)cc1-2 (centres undefined)
0.57

Consider next the molecule COc1cc(NC(N)=NCCC(C)(C)Oc2ccc(C(F)(F)F)cc2)ncc1C#N in the same way.
0.48

----------
Tested on: SK-MEL-2 melanoma
protocol: NCI tumour cell line growth inhibition, 48 h
resultType: TGI

Solved cases below.
INSERT INTO measurements (compound, resulttype, result) VALUES
  ('CC(C)/C(Cl)=N\OC(=O)Nc1ccccc1F', 'TGI', '33.2 µM'),
  ('OC(c1cc2ccccc2o1)c1cc2ccccc2s1 (stereo not drawn)', 'TGI', '> 10 µM'),
  ('O=C1CCC2(CC1CC(Sc1ccccc1)Sc1ccccc1)OCCO2 (stereo not drawn)', 'TGI', '> 100 µM'),
  ('COC(=O)/C=C\n1c(C)cc(=O)[nH]c1=O', 'TGI', '> 100 µM'),
  ('COC(=O)[C@@H]1[C@@H](c2cccc(Cl)c2)[C@H](C(=O)OC)C2(C[C@@]1(C)O)NCCS2 (stereo partly drawn)', 'TGI', '94 µM'),
  ('Cc1cc2c(ccc3c(C)cc(=O)oc32)o1', 'TGI', '> 100 µM'),
  ('Oc1[nH]c2ccccc2c1N=Nc1ccccn1', 'TGI', '> 100 µM');

Next item in the queue.
// query TGI value for entry O=C1Nc2ccccc2C12CCNC2Cc1ccccc1 (stereo not drawn)
> 100 µM

----------
Property: TGI; scope: individual molecules
System: HS 578T breast
protocol: NCI tumour cell line growth inhibition, 48 h
Write the value in µM as a bare number.

INSERT INTO assay_data (smilesstructure, targetdesc, resulttype, resultnumber) VALUES
  ('COc1cccc(-c2cc(=O)c3cc(OC)ccc3[nH]2)c1', 'HS 578T breast', 'TGI', 0.885),
  ('C[Si](C)(OCCS(=O)(=O)O)C1(Cc2cccc3ccccc23)S(=O)(=O)OCCOS1(=O)=O', 'HS 578T breast', 'TGI', 95),
  ('C#CCOc1cccc(-c2ncnc3cc(NC(=O)CCl)ccc23)c1', 'HS 578T breast', 'TGI', 14.5);

Please look at the following molecule next.
Would you kindly share the measured TGI for Cc1cnc2sn(-c3ccc(Oc4ccccc4)cc3)c(=O)c2c1 ?
50.9

----------
Tested on: BT-549 breast
protocol: NCI tumour cell line growth inhibition, 48 h; in the data active means GI50 below about 0.43 µM; inactive means the rest
Pick one: class 1 = active, class 0 = inactive

Observe how each entry below is paired with its result.
INSERT INTO results (smilesstructure, targetdesc, assignedclass) VALUES
  ('S=C(Nc1ccc(Br)cc1)Nc1ccc(Br)cc1', 'BT-549 breast', 'class 0'),
  ('Cc1cc(S(=O)(=O)Nc2nc3cscc3c(=O)n2Cc2ccccc2)c(S)cc1Cl', 'BT-549 breast', 'class 0');

Check the results log: what was the call for CN[C@H]1C=C[C@@H]2/C=C(C)/C=C/[C@@H](C)[C@H]([C@H](C)[C@H](O)[C@@H](C)NC(C)=O)OC(=O)/C=C/C=C(C)\C=C\[C@]2(C)C1 ?
class 1

----------
Test system: EKVX NSCLC
protocol: NCI tumour cell line growth inhibition, 48 h; in the data active means GI50 below about 0.43 µM; inactive means the rest
Use one of these outcomes when replying: active, inactive

Consider the worked cases shown below.
INSERT INTO assay_data (smilesstructure, assignedclass) VALUES
  ('C#CCOc1cccc(-c2ncnc3cc(NC(=O)CCl)ccc23)c1', 'inactive'),
  ('C=C1C(=O)O[C@H]2C[C@@H]1CC/C(C)=C/CC/C(C)=C/CC[C@H]2C', 'inactive'),
  ('O=S(=O)(Nc1ccccc1Cl)c1ccc(-c2cnc(C3CC3)o2)cc1', 'inactive'),
  ('FC(F)c1nc2ccccc2n1-c1nc(N2CCOCC2)nc(N2CCOCC2)n1', 'inactive');

For CCC[CH2][Sn]([CH2]CCC)([CH2]CCC)[O]c1ccc(Cl)cc1Cl , what call appears in the results of this test?
active

Next compound: Cc1ccc(-c2csc(/N=C3\C(=O)Nc4ccccc43)n2)cc1
inactive

Now consider C[N-]c1nnnn1C.[Au+].c1ccc([PH+](c2ccccc2)c2ccccc2)cc1 and answer again.
inactive

Repeat for the following compound: CC(=O)[CH-]C(C)=O.CC(=O)[CH-]C(C)=O.[CH2-]CCC.[CH2-]CCC.[Sn+4]
inactive

Next entry: CNC(=O)c1ccc(N2CCN(Cc3ccc4nc(C)c(=O)[nH]c4c3F)CC2)c(F)n1
inactive

Let us now turn to O=C(CO[N+](=O)[O-])Nc1ccc(C(=O)/C=C/c2ccc(Cl)cc2)cc1
inactive

----------
Test system: SN12C renal
protocol: NCI tumour cell line growth inhibition, 48 h
Listing: TGI of selected compounds

Known results for compounds:
INSERT INTO results (compound, resulttype, result) VALUES
  ('c1cc(N(CCn2cccn2)CCn2cccn2)cc(N(CCn2cccn2)CCn2cccn2)c1', 'TGI', '> 100 µM'),
  ('CN(C)c1ccc(C(=C(c2ccc(N(C)C)cc2)c2ccc(N(C)C)cc2)c2ccc(N(C)C)cc2)cc1', 'TGI', '35.2 µM'),
  ('COc1ccc(S(=O)(=O)Nc2ccccc2C(=O)O)cc1', 'TGI', '> 100 µM'),
  ('FC(F)c1nc2ccccc2n1-c1nc(N2CCOCC2)nc(N2CCOCC2)n1', 'TGI', '> 100 µM'),
  ('CC(=O)[C@@]1(C)CC2(CCN(C)CC2)OC1C (stereo partly specified)', 'TGI', '> 100 µM');

Endpoint output: TGI of Cc1c(Cl)nc(Nc2nc3ccccc3[nH]2)nc1Cl . Value?
> 100 µM

Same read-out for Cc1ccc(C)c2c1C(O)(C#Cc1ccccc1)c1ccccc1C2(O)C#Cc1ccccc1 (stereo unspecified) ?
89.2 µM

Also, CCCCc1ccc(Nc2nc3c(ncn3C3CC(O)C(CN=[N+]=[N-])O3)c(=O)[nH]2)cc1 (stereo unspecified) please.
> 100 µM

Query NC(N)=N/N=C/c1nc2n(c1[N+](=O)[O-])CCS2 next
> 100 µM

Then Cc1ccsc1/C=N/Nc1nc2ccccc2s1 ?
41.3 µM

Please do the same for COC(=O)c1c2c(c[n+]([O-])c1C)C(=O)C=CC2=O as well.
3.23 µM

----------
Tested on: OVCAR-3 ovarian
protocol: NCI tumour cell line growth inhibition, 48 h
Reported TGI values for the following compounds.

INSERT INTO results (smilesstructure, targetdesc, resulttype, result) VALUES
  ('NC(N)=N/N=C/c1nc2n(c1[N+](=O)[O-])CCS2', 'OVCAR-3 ovarian', 'TGI', '70.2 µM'),
  ('CCOP(=O)(OCC)/C(C#N)=C/c1cn(C)cn1', 'OVCAR-3 ovarian', 'TGI', '> 100 µM'),
  ('Cc1nc(C)c(C(=O)NNC(N)=S)cc1C(=O)NNC(N)=S', 'OVCAR-3 ovarian', 'TGI', '> 100 µM'),
  ('CC(=O)OCCCOCn1c(Cc2ccccc2)c(C)c(=O)[nH]c1=O', 'OVCAR-3 ovarian', 'TGI', '> 100 µM'),
  ('COc1ccc(-c2cc(=O)c3cc4c(cc3[nH]2)OCO4)cc1OC', 'OVCAR-3 ovarian', 'TGI', '> 100 µM'),
  ('C[C@H](CCC(=O)NCCS(=O)(=O)O)[C@H]1CC[C@H]2[C@@H]3CC[C@@H]4C[C@H](O)CC[C@]4(C)[C@H]3CC[C@]12C', 'OVCAR-3 ovarian', 'TGI', '> 100 µM'),
  ('CC1(C)N=C(C(N)=O)c2ncn(N)c2N1', 'OVCAR-3 ovarian', 'TGI', '> 100 µM'),
  ('O=C1c2ccccc2C(Br)(Br)c2ccccc21', 'OVCAR-3 ovarian', 'TGI', '> 31.6 µM');

Which value of TGI has been reported for Cc1ccsc1/C=N/Nc1nc2ccccc2s1 in the records?
60.7 µM

Input C=C1C(=O)O[C@H]2[C@H]1CC/C(COC(=O)CSCCSCC(=O)OC/C1=C/CC[C@@]3(C)O[C@H]3[C@H]3OC(=O)C(=C)[C@@H]3CC1)=C\CC[C@@]1(C)O[C@@H]21
2.44 µM
